molecular target: MAST2, Q6P0Q8; assay: holdup assay; design: key: below the threshold = too weak to quantify, mostly under pKd 3.1 to 4; conditions: plain residues with an end cap or a label only (N-terminal biotin on a linker: ahx)
Sequence (Q6P0Q8 1099-1202): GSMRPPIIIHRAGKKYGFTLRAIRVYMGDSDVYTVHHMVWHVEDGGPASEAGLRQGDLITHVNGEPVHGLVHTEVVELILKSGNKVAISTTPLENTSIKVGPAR
observable: pKd
Would you mind answering with just the numeric figure?

Sample answers from the record:
Task: Please report the recorded pKd for KDECVIATEV [DLL1, O00548] .
Output: 5.17

Task: Also check KEYDDELTFF [USH1C, Q9Y6N9]
Output: 5.3

More entries:
Task: Please report the recorded pKd for PKMKLNETSF [SHKBP1, Q8TBC3] .
Output: 4.94
